Listed next: entries and their corresponding inhibition.
Test system: RAW264.7
Assay overview: Inhibition of LPS induced NF-kappa-B transcriptional activity in mouse RAW264.7 cells at 30 uM after 20 hrs by SEAP reporter assay
Type: cell-based
Provide the reading as a plain figure in %.

Clc1ccc(Cc2nc3ccccc3[nH]2)cc1Cl = 63
COc1ccc(Cc2nc3cc(Cl)ccc3[nH]2)cc1 = 66
Oc1ccc(Cc2nc3ccccc3[nH]2)cc1 = 75
Oc1ccc(Cc2nc3ccccc3[nH]2)cc1O = 75
COc1ccc(Cc2nc3ccccc3[nH]2)cc1OC = 32

### Prompt inhibition of Clc1ccccc1Cc1nc2ccccc2[nH]1 on RAW264.7?
### Response 33

### Prompt Lab note: need inhibition with RAW264.7 for entry COc1ccc(Cc2nc3ccccc3[nH]2)cc1 , please look it up.
### Response 90

### Prompt Value wanted: inhibition (RAW264.7) of entry COc1ccc(Cc2nc3ccccc3s2)cc1
### Response 67

### Prompt Provide the documented inhibition with RAW264.7 as the system for COc1ccccc1Cc1nc2ccccc2[nH]1
### Response 85

### Prompt Fill in the recorded inhibition for this compound, with RAW264.7 as test system: COc1ccc(CCc2nc3ccccc3[nH]2)cc1
### Response 50

### Prompt Notebook: pull reported inhibition for RAW264.7, entry Clc1ccc(Cc2nc3ccccc3[nH]2)cc1
### Response 85

### Prompt Any idea what inhibition came out for O=[N+]([O-])c1ccc(Cc2nc3ccccc3[nH]2)cc1 on RAW264.7?
### Response 64

### Prompt Request - read-out inhibition | tested on RAW264.7 | compound COc1ccc(Cc2nc3ccccc3o2)cc1
### Response 42

### Prompt Identify the measured inhibition of Nc1ccc(Cc2nc3ccccc3[nH]2)cc1 for RAW264.7.
### Response 40

### Prompt Recorded inhibition for Clc1ccc(-c2nc3ccccc3[nH]2)cc1 with RAW264.7, please?
### Response 12
